Just for reference, ChEMBL document CHEMBL2169744 is where these values come from.

# assayExplanation: Clearance in rat at 0.3 mg/kg, iv
# Format: ADME, organism-based
# Design: dose 0.3 mg/kg, route intravenous
# conditionDetails: in vivo
valueKind: clearance (mL/min/kg)

> print(dat)
                          structurenotation  measureunit  measuredvalue
1  Cc1nc(N)cc(-c2c(Nc3cc[nH]n3)nc3ccccn23)n1    mL/min/kg           68.3

* * *

Entries and their bioavailability values follow.
# assayExplanation: Oral bioavailability in rat at 1 mg/kg
# Assay type: ADME, organism-based
# conditionDetails: in vivo
valueKind: bioavailability (%)

> print(dat)
                          structurenotation        valuekind  measuredvalue
1  Cc1nc(N)nc(-n2c(Nc3ccn[nH]3)nc3ccccc32)n1  bioavailability              6
2  Cc1nc(N)nc(-c2c(Nc3cc[nH]n3)nc3ccccn23)n1  bioavailability             24

* * *

# assayExplanation: Volume of distribution at steady state in rat at 0.5 mg/kg, iv
# Type: ADME, organism-based
# Design: dose 0.5 mg/kg, route intravenous
# conditionDetails: in vivo, read-out: Vdss
valueKind: Vd (L/kg)

> print(dat)
                                    molecule  valuekind  measuredvalue
 1  Cc1nc(Nc2cnn(C3CCOC3)c2)cc(-c2c(Nc3ccn[nH]3)nc3cccnn23)n1 (configuration not stated)         Vd            3.2
 2  CC(=O)Nc1cc(-c2c(Nc3ccn(C)n3)nc3ccc(-c4cnn(C(C)C)c4)cn23)nc(C)n1         Vd            2.1
 3  Cc1nc(N)cc(-c2c(Nc3cc[nH]n3)nc3cccnn23)n1         Vd              2
 4  COc1cnnc(Nc2cc(-c3c(Nc4cc[nH]n4)nc4cccnn34)nc(C)n2)c1         Vd            9.1
 5  Cc1nc(N)nc(-c2c(Nc3ccn(C)n3)nc3ccc(-c4cncnc4)cn23)n1         Vd              1
 6  Cc1nc(Nc2cnccn2)cc(-c2c(Nc3ccn[nH]3)nc3cccnn23)n1         Vd            2.5
 7  Cc1nc(N)cc(-c2c(Nc3cc[nH]n3)nc3ccccn23)n1         Vd            1.2
 8    Cc1nccc(-c2c(Nc3ccn[nH]3)nc3cccnn23)n1         Vd           0.62
 9  CNc1cc(-c2c(Nc3cc[nH]n3)nc3cccnn23)nc(C)n1         Vd            1.3
10  Cc1nc(Nc2ccc(N3CCOCC3)nn2)cc(-c2c(Nc3ccn[nH]3)nc3cccnn23)n1         Vd            3.9
11  Cc1nc(N)nc(-c2c(Nc3cc[nH]n3)nc3ccccn23)n1         Vd           1.14
12  CC(=O)Nc1cc(-c2c(Nc3cc[nH]n3)nc3ccccn23)nc(C)n1         Vd            1.2
13  CC(=O)Nc1cc(-c2c(Nc3ccn(C)n3)nc3ccccn23)nc(C)n1         Vd            0.6
14  CC(=O)Nc1cc(-c2c(Nc3cc[nH]n3)nc3cccnn23)nc(C)n1         Vd            6.3
15  CC(=O)Nc1cc(-c2c(Nc3ccn(C)n3)nc3ccc(-c4cccnc4C)cn23)nc(C)n1         Vd            1.7
16  CC(=O)Nc1cc(-c2c(Nc3ccn(C)n3)nc3cccnn23)nc(C)n1         Vd            0.8
17  CC(=O)Nc1cc(-c2c(Nc3ccn(C)n3)nc3ccc(-c4cnco4)cn23)nc(C)n1         Vd            4.1
